Biological target: Carbonic anhydrase 1 (Homo sapiens, UniProt P00915)
Sequence (P00915 whole entry): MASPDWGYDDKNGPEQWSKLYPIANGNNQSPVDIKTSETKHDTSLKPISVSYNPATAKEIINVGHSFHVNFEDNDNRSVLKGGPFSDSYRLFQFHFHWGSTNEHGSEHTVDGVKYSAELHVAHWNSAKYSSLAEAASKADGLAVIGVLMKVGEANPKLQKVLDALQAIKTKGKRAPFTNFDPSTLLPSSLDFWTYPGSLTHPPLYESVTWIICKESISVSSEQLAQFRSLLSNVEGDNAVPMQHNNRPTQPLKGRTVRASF
ENDPOINT LABEL: Ki (µM)
Write the number in µM without appending the unit.

# assay system Carbonic anhydrase 1 (Homo sapiens, UniProt P00915): give Ki of "C=CCn1c(SCC(=O)Nc2ccc(S(N)(=O)=O)cc2)nc2sc3c(c2c1=O)CCCC3"
15

---

Entries with their measured pKi, system Carbonic anhydrase 9 (Homo sapiens, UniProt Q16790):
Remember, pKi is on a log scale: it is -log10 of the molar concentration.

# example entries with known answers
SMILES STR	pKi
CC1CCN(N(CCCC(=O)Nc2ccc(S(N)(=O)=O)cc2)N2CCC(C)CC2)CC1	7.05
C=CCn1c(SCC(=O)Nc2ccc(S(N)(=O)=O)cc2)nc2sc3c(c2c1=O)CCCC3	5.56

Item "NS(=O)(=O)c1ccc(CNS(=O)(=O)c2ccc(F)cc2)cc1" : provide pKi
6.54

Given the compound "N#Cc1c(N)n(-c2cccc(S(N)(=O)=O)c2)c2nc3ccccc3nc12" , write its reported pKi.
6.52

---

// pKi collected for Carbonic anhydrase 2 (Homo sapiens, UniProt P00918)
Here pKi is given on a logarithmic scale as minus log10 of the concentration in mol/L.

For orientation, consider the following solved cases.
MOLECULE	TGT	ENDPOINT LABEL	RECORDED NUMBER
NS(=O)(=O)c1ccc(CNC(=O)NC2CC2c2ccccc2)cc1 (stereo not drawn)	Carbonic anhydrase 2 (Homo sapiens, UniProt P00918)	pKi	5.58
CC1CCN(N(CCCC(=O)Nc2ccc(S(N)(=O)=O)cc2)N2CCC(C)CC2)CC1	Carbonic anhydrase 2 (Homo sapiens, UniProt P00918)	pKi	6.58

Please turn your attention to the following entry.
Give pKi for "C=CCn1c(SCC(=O)Nc2ccc(S(N)(=O)=O)cc2)nc2sc3c(c2c1=O)CCCC3"
6.48
